// data source = patent US20240092761A1

IC50 for assorted compounds
System under test: CDK2/Cyclin E1 full length (Homo sapiens (Human), UniProt P24941)
Assay details: CDK2/Cyclin E1 Full Length ADP-Glo Kinase Assay
Format: biochemical
Study conditions: 20 uM ATP, read-out: CDK2/ CyclinE1 IC50
Quantity name: IC50

>>> result("O=S(=O)(C1CC1)N1CCC(Nc2ncc3cc(C(F)F)cc(N4CC5(CCCNC5)C4)c3n2)CC1")
"< 200 nM"
>>> result("COC1CC2(C1)CC(c1cccc3cnc(NC4CCN(S(C)(=O)=O)CC4)nc13)C2 (stereo not shown)")
"< 200 nM"
>>> result("CC(=O)N1CCC2(CCN(c3cccc4cnc(Nc5ccc6c(c5)CCN(C)C6)nc34)C2)C1 (stereo not shown)")
"200 to 500 nM"
>>> result("O=S(=O)(C1CC1)N1CCC(Nc2ncc3cc(C(F)F)cc(N4CC5(CNCC5F)C4)c3n2)CC1 (stereo not shown)")
"< 200 nM"
>>> result("CC1(C)CC2(CN(c3cccc4cnc(NC5CCN(S(C)(=O)=O)CC5)nc34)C2)C1")
"200 to 500 nM"
>>> result("CS(=O)(=O)N1CCC(Nc2ncc3cc(C(F)F)cc(C4CC5(CCNC5)C4)c3n2)CC1 (stereo not shown)")
"< 200 nM"
>>> result("CN1CC2(CCN(c3cc(C(F)F)cc4cnc(NC5CCN(c6ncc7ccn(C8CC8)c7n6)CC5)nc34)C2)C1")
"200 to 500 nM"
>>> result("CS(=O)(=O)N1CCC(Nc2ncc3cc(C(F)F)cc(C4CC5(CCN(CC(F)F)C5)C4)c3n2)CC1 (stereo not shown)")
"< 200 nM"
>>> result("CS(=O)(=O)N1CCC(Nc2ncc3cccc(C4CC(CO)(C(F)F)C4)c3n2)CC1 (stereo not shown)")
"< 200 nM"
>>> result("CC(=O)N1CCC2(CC1)CCN(c1cccc3cnc(NC4CCN(S(C)(=O)=O)CC4)nc13)C2")
"< 200 nM"
>>> result("CN1CC(n2cc(Nc3ncc4cc(C(F)F)cc(N5CC6(CN(C)C6)C5)c4n3)cn2)C1")
"500 to 2000 nM"
>>> result("CS(=O)(=O)N1CCC(Nc2ncc3cccc(N4CCN(C5CC5)CC4)c3n2)CC1")
"< 200 nM"
>>> result("CN1Cc2cc(F)c(Nc3ncc4cc(C(F)F)cc(N5CC6(CNC6)C5)c4n3)cc2C1")
"< 200 nM"
>>> result("CN1CC2(CCN(c3cc(C(F)F)cc4cnc(NC5CCN(S(C)(=O)=O)CC5)nc34)C2)C1")
"< 200 nM"
>>> result("O=S(=O)(c1ccc(C(F)(F)F)nc1)N1CCC(Nc2ncc3cc(C(F)F)cc(N4CC5(CCNC5)C4)c3n2)CC1")
"< 200 nM"
>>> result("CS(=O)(=O)N1CCC(Nc2ncc3cc(C(F)F)cc(C4CC(O)(C(F)F)C4)c3n2)CC1 (stereo not shown)")
"< 200 nM"

###

pIC50 for assorted compounds
System under test: CDK1/Cyclin B1 (Homo sapiens (Human), UniProt P06493)
Sequence (P06493 whole entry): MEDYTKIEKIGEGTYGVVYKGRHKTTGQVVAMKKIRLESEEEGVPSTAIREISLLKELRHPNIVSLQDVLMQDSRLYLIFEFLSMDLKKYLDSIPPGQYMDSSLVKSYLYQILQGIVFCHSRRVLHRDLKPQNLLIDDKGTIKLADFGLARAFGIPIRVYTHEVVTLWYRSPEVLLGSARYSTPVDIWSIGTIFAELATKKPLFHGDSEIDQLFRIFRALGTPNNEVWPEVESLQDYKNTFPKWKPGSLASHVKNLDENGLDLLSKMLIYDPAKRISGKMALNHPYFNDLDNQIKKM
Sequence (P14635 whole entry partner): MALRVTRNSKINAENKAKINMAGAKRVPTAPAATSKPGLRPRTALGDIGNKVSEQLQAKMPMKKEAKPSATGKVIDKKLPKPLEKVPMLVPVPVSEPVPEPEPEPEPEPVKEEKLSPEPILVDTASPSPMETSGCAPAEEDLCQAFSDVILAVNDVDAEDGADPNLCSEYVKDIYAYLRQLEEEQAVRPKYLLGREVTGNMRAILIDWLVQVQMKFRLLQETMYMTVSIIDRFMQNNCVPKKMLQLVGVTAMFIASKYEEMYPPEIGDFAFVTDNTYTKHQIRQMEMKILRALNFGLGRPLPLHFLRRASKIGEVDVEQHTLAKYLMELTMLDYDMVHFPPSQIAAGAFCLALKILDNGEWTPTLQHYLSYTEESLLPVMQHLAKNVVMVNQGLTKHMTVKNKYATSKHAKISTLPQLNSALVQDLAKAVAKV
Assay details: CDK1/Cyclin B1 ADP-Glo Kinase Assay
Type: biochemical
Study conditions: 80 uM ATP
pIC50: −log10 of the molar value.
Quantity name: pIC50

>>> result("CN1CC2(CCN(c3cccc4cnc(NC5CCN(S(C)(=O)=O)CC5)nc34)C2)C1")
"6.30 to 6.70"
>>> result("CC(C)(F)CN1CCC2(CC(c3cc(C(F)F)cc4cnc(NC5CCN(S(C)(=O)=O)CC5)nc34)C2)C1 (stereo not shown)")
"> 6.70"
>>> result("CN1Cc2ccc(Nc3ncc4cc(C(F)F)cc(N5CC6(CN(C)C6)C5)c4n3)cc2C1")
"< 5.70"
>>> result("O=S(=O)(C1CC1)N1CCC(Nc2ncc3cc(C(F)F)cc(N4CC5(CCNC5)C4)c3n2)CC1")
"> 6.70"

###

System under test: CDK6/Cyclin D3 (Homo sapiens (Human), UniProt Q00534)
Sequence (Q00534 whole entry): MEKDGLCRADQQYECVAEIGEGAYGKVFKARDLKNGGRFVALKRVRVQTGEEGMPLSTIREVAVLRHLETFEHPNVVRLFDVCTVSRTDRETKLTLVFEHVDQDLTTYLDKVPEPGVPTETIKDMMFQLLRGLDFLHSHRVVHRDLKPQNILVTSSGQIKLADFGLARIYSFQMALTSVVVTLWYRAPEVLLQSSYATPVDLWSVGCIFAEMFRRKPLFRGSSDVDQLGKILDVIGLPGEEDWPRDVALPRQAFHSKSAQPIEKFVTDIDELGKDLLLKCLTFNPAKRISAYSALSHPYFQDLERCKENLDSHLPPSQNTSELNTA
Sequence (P30281 whole entry partner): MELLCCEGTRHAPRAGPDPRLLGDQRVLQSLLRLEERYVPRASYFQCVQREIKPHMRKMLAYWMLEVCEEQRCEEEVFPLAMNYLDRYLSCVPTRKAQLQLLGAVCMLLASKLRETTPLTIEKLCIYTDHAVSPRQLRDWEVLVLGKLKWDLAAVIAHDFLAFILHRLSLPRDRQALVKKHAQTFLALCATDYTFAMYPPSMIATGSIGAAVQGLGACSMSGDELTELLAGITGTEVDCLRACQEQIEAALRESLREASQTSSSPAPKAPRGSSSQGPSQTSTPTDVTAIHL
Assay details: CDK6/Cyclin D3 ADP-Glo Kinase Assay
Study conditions: 100 uM ATP, read-out: CDK6/ CyclinD3 IC50
pIC50: −log10 of the molar value.
pIC50 for assorted compounds
Quantity name: pIC50

>>> result("O=S(=O)(C1CC1)N1CCC(Nc2ncc3cc(C(F)F)cc(N4CC5(CCNC5)C4)c3n2)CC1")
"> 6.70"
>>> result("CS(=O)(=O)N1CCC(Nc2ncc3cccc(N4CCC5(CCC(F)(F)CC5)C4)c3n2)CC1")
"> 6.70"
>>> result("CC(=O)N1CCC2(CCN(c3cccc4cnc(Nc5ccc(N6CC7(COC7)C6)cn5)nc34)C2)C1 (stereo not shown)")
"5.70 to 6.30"
>>> result("CC(=O)N1CCC2(CCC(c3cccc4cnc(NC5CCN(S(C)(=O)=O)CC5)nc34)C2)C1 (stereo not shown)")
"> 6.70"
>>> result("CN1CC2(CCN(c3cc(C(F)F)cc4cnc(NC5CCN(c6ncc(C7CC7)cn6)CC5)nc34)C2)C1")
"< 5.70"
>>> result("CS(=O)(=O)N1CCC(Nc2ncc3cccc(N4CC5(CCS5(=O)=O)C4)c3n2)CC1")
"> 6.70"
>>> result("CS(=O)(=O)N1CCC(Nc2ncc3cccc(N4CCOC5(CC5)C4)c3n2)CC1")
"6.30 to 6.70"
>>> result("O=S(=O)(c1ccc(C(F)(F)F)nc1)N1CCC(Nc2ncc3cc(C(F)F)cc(N4CC5(CCNC5)C4)c3n2)CC1")
"> 6.70"
>>> result("CS(=O)(=O)N1CCC(Nc2ncc3cccc(N4CCC5(CCOCC5)C4)c3n2)CC1")
"> 6.70"
>>> result("CS(=O)(=O)N1CCC(Nc2ncc3cc(C(F)F)cc(C4CC(O)(C(F)F)C4)c3n2)CC1 (stereo not shown)")
"> 6.70"
>>> result("O=S(=O)(C1CC1)N1CCC(Nc2ncc3cc(C(F)F)cc(N4CC5(CNCC5F)C4)c3n2)CC1 (stereo not shown)")
"> 6.70"
>>> result("CS(=O)(=O)N1CCC(Nc2ncc3cccc(N4CCC5(C4)CS(=O)(=O)C5)c3n2)CC1")
"> 6.70"
>>> result("CN1CC(n2cc(Nc3ncc4cc(C(F)F)cc(N5CC6(CN(C)C6)C5)c4n3)cn2)C1")
"5.70 to 6.30"
>>> result("CS(=O)(=O)N1CCC(Nc2ncc3cccc(N4CCN(CC5CC5)CC4)c3n2)CC1")
"5.70 to 6.30"
>>> result("Cn1ncc2cc(Nc3ncc4cc(C(F)F)cc(N5CC6(CCNC6)C5)c4n3)ccc21")
"> 6.70"
>>> result("CC(=O)N1CCC2(CCN(c3cccc4cnc(Nc5ccc(N6CC7(C6)CC(F)(F)C7)cn5)nc34)C2)C1 (stereo not shown)")
"6.30 to 6.70"

###

pIC50 for assorted compounds
System under test: CDK6/Cyclin D3 (Homo sapiens (Human), UniProt Q00534)
Assay details: CDK6/Cyclin D3 ADP-Glo Kinase Assay
Study conditions: 100 uM ATP, read-out: CDK6/ CyclinD3 IC50
pIC50: −log10 of the molar value.
Quantity name: pIC50

>>> result("O[C@@H]1COCC[C@H]1Nc1ncc2cc(C(F)F)cc(N3CC(F)(F)C4(CNC4)C3)c2n1 (racemic)")
"> 6.70"
>>> result("CCN1CC2(C1)CN(c1ccc(Nc3ncc4cccc(N5CC6(CCS6(=O)=O)C5)c4n3)nc1)C2")
"6.30 to 6.70"
>>> result("O=S(=O)(C1CC1)N1CCC(Nc2ncc3cc(C(F)F)cc(N4CC5(CNCCO5)C4)c3n2)CC1")
"> 6.70"
>>> result("CN1CC2(CCN(c3cc(C(F)F)cc4cnc(NC5CCN(S(C)(=O)=O)CC5)nc34)C2)C1")
"> 6.70"
>>> result("CN1CC2(CCN(c3cccc4cnc(Nc5ccc(N6CC7(COC7)C6)cn5)nc34)C2)C1")
"6.30 to 6.70"
>>> result("CS(=O)(=O)N1CCC(Nc2ncc3cc(C(F)F)cc(C4CC5(CCNC5)C4)c3n2)CC1 (centres unmarked)")
"> 6.70"
>>> result("CS(=O)(=O)N1CCC(Nc2ncc3cccc(N4CCC4CO)c3n2)CC1 (centres unmarked)")
"> 6.70"
>>> result("CN1CC2(CCN(c3cc(C(F)F)cc4cnc(NC5CCN(S(=O)(=O)C6CC6)CC5)nc34)C2)C1")
"> 6.70"

###

pIC50 for assorted molecules
System under test: CDK2/Cyclin E1 full length (Homo sapiens (Human))
Assay details: CDK2/Cyclin E1 Full Length ADP-Glo Kinase Assay
Assay type: biochemical
Study conditions: 20 uM ATP, read-out: CDK2/ CyclinE1 IC50
pIC50: −log10 of the molar value.
Quantity name: pIC50

>>> result("O=S(=O)(N1CCC(Nc2ncc3cc(C(F)F)cc(N4CCC5(CNC5)C4)c3n2)CC1)C1(C(F)F)CC1")
"> 6.70"
>>> result("CN1CC2(CCN(c3cccc4cnc(NC5CCN(S(C)(=O)=O)CC5)nc34)C2)C1")
"> 6.70"
>>> result("CS(=O)(=O)N1CC[C@@H](Nc2ncc3cc(C(F)F)cc(N4CC(F)(F)C5(CNC5)C4)c3n2)[C@H](O)C1 (racemic)")
"> 6.70"
>>> result("O=S(=O)(C1CC1)N1CCC(Nc2ncc3cc(C(F)F)cc(C4CC5(C4)CN(CC(F)F)C5)c3n2)CC1")
"> 6.70"
>>> result("CS(=O)(=O)N1CCC(Nc2ncc3cc(C(F)(F)F)cc(C4CC(O)(C5CC5)C4)c3n2)CC1 (stereo not drawn)")
"> 6.70"
>>> result("Cn1cc(S(=O)(=O)N2CCC(Nc3ncc4cccc(N5CC(O)(C(F)F)C5)c4n3)CC2)cn1")
"> 6.70"
>>> result("O=S(=O)(CC1CC1)N1CCC(Nc2ncc3cc(C(F)F)cc(N4CC5(CCNC5)C4)c3n2)CC1")
"> 6.70"
>>> result("CN1C[C@@H]2C(Nc3ncc4cc(C(F)F)cc(N5CCC6(CCN(S(C)(=O)=O)C6)C5)c4n3)[C@@H]2C1 (stereo partly drawn)")
"< 5.70"
>>> result("CC1(S(=O)(=O)N2CCC(Nc3ncc4cc(C(F)F)cc(N5CC6(CCNC6)C5)c4n3)CC2)CC1")
"> 6.70"
>>> result("CS(=O)(=O)N1CCC(Nc2ncc3cccc(N4CCN(S(C)(=O)=O)CC4)c3n2)CC1")
"6.30 to 6.70"
>>> result("CS(=O)(=O)N1CCC(Nc2ncc3cccc(N4CC(CC#N)C4)c3n2)CC1")
"> 6.70"
>>> result("COCCN1CC2(CCN(c3cccc4cnc(Nc5ccc(N6CC7(COC7)C6)cn5)nc34)C2)C1")
"< 5.70"
>>> result("CN1CC2(CC(c3cc(C(F)F)cc4cnc(NC5CCN(S(C)(=O)=O)CC5)nc34)C2)C1")
"> 6.70"
>>> result("CN1CCC2(C1)CN(c1cccc3cnc(NC4CCN(S(C)(=O)=O)CC4)nc13)C2")
"6.30 to 6.70"
>>> result("COCCN1CC2(C1)CN(c1cccc3cnc(NC4CCN(S(C)(=O)=O)CC4)nc13)C2")
"> 6.70"
>>> result("FC(F)c1cc(N2CC3(CCNC3)C2)c2nc(Nc3ccc4c(c3)CN(C3CC3)C4)ncc2c1")
"> 6.70"
>>> result("CS(=O)(=O)N1CCC(Nc2ncc3cc(C(F)F)cc(C4CC5(CCN(CC(F)(F)CO)C5)C4)c3n2)CC1 (stereo not drawn)")
"> 6.70"
>>> result("CS(=O)(=O)N1CCC(Nc2ncc3cccc(N4CCC5(CCC(F)(F)CC5)C4)c3n2)CC1")
"> 6.70"
>>> result("O=S(=O)(N1CCC(Nc2ncc3cc(C(F)F)cc(C4CC5(CCNC5)C4)c3n2)CC1)C1(C(F)F)CC1 (stereo not drawn)")
"> 6.70"
>>> result("FC(F)c1cc(N2CC3(CCNC3)C2)c2nc(NC3CCN(c4ncc(C5CC5)cn4)CC3)ncc2c1")
"> 6.70"
>>> result("O=S(=O)(C1CC1)N1CCC(Nc2ncc3cc(C(F)F)cc(N4CC5(C4)CN(C4CC4)C5)c3n2)CC1")
"> 6.70"
>>> result("CC(=O)N1CCC2(CCN(c3cccc4cnc(Nc5ccc(N6CC7(COC7)C6)cn5)nc34)C2)C1 (stereo not drawn)")
"< 5.70"
>>> result("CN1CCC2(C1)CN(c1cc(C(F)F)cc3cnc(NC4CCN(S(=O)(=O)C5CC5)CC4)nc13)C2")
"> 6.70"
>>> result("CS(=O)(=O)N1CCC(Nc2ncc3cccc(N4CCN(CC5CC5)CC4)c3n2)CC1")
"> 6.70"
>>> result("CS(=O)(=O)N1CCC(Nc2ncc3cccc(C4CC5(CCNC5)C4)c3n2)CC1 (stereo not drawn)")
"> 6.70"
>>> result("CS(=O)(=O)N1CCC(Nc2ncc3cccc(N4CC5(CC(O)C5)C4)c3n2)CC1")
"> 6.70"
>>> result("CN1C[C@@H]2[C@H](C1)[C@H]2Nc1ncc2cc(C(F)F)cc(N3CCC4(C3)CS(=O)(=O)C4)c2n1")
"< 5.70"
>>> result("CN1Cc2ccc(Nc3ncc4cc(C(F)F)cc(N5CC6(CN(C)C6)C5)c4n3)cc2C1")
"> 6.70"
>>> result("O=S(=O)(CC1CCC1)N1CCC(Nc2ncc3cc(C(F)F)cc(N4CCC5(CNC5)C4)c3n2)CC1")
"> 6.70"
>>> result("CS(=O)(=O)N1CCC(Nc2ncc3cccc(N4CCC5(CCC5(F)F)C4)c3n2)CC1 (stereo not drawn)")
"> 6.70"
